Cited source: patent US12286443B2

Tested on: Hut-78 cells
Assay: Inhibition in Hut-78 cells (IL-2 stimulated, HTRF)
Type: cell-based
Conditions: Homo sapiens, HuT78; compound 2 hours at 37° C., then IL-2 100 ng/mL 10 min; HTRF; read-out: Hut-78 cells IC50
Description: Exemplary compounds were assayed to determine potency in inhibiting Hut-78 cells by determining IC50 values. Hut-78 cells were cultures in IMDM+20% FBS medium. Cells were maintained in log phase before the assay. Cell pellets were collected and resuspended in serum-free and phenol-free RPMI 1640 medium. […] The plate was read using the HTRF protocol on an Envision plate reader. The data was analyzed using XL-fit software (Supplier: ID business solutions Ltd.; Software version: XL fit 5.0). […]
pIC50: −log10 of the molar value.
Listed here: items and their measured pIC50.

Worked examples, 5 compounds total:
COMPOUND | RECORDED RESULT
O=C(NCCC(F)(F)F)c1noc2c1CN(c1ncnc3[nH]ccc13)CC2 [Compound 110] | 6.00 to 6.30
O=C(NCCC(F)(F)F)c1nn(Cc2ccncc2)c2c1CN(c1ncnc3[nH]ccc13)CC2 [Compound 105] | 6.00 to 6.30
CC1(CNC(=O)c2noc3c2CN(c2ncnc4[nH]ccc24)CC3)CC(F)(F)C1 [Compound 199] | > 6.30
O=C(N[C@H]1C[C@@](O)(C(F)(F)F)C1)c1noc2c1CN(c1ncnc3[nH]ccc13)CC2 [Compound 202] | > 6.30
O=C(NCC1CC1(F)F)c1noc2c1CN(c1ncnc3[nH]ccc13)CC2 (stereo not drawn) [Compound 179] | 5.00 to 6.00

Request: What measured pIC50 goes with O=C(NC(CO)CC(F)(F)F)c1noc2c1CN(c1ncnc3[nH]ccc13)CC2 (stereo not drawn) [Compound 186] ?
Response: > 6.30

Request: Recorded pIC50 for O=C(NCCC(F)(F)F)c1onc2c1CN(c1ncnc3[nH]ccc13)CC21CC1 [Compound 193] , please?
Response: 6.00 to 6.30

Request: Reported pIC50, compound N#Cc1cn(C(=O)NCCC(F)(F)F)c2c1CCN(c1ncnc3[nH]ccc13)C2 [Compound 143] : ____
Response: 5.00 to 6.00

Request: Form field: reported pIC50 of O=C(NC1CC1C(F)(F)F)c1noc2c1CN(c1ncnc3[nH]ccc13)CC2 (stereo not drawn) [Compound 182]
Response: > 6.30

Request: Quick one: pIC50 of O=C(NC1CC(O)(C(F)(F)F)C1)c1noc2c1CN(c1ncnc3[nH]ccc13)CC2 (stereo not drawn) [Compound 201] ?
Response: > 6.30

Request: What measured pIC50 goes with O=C(NCCC(F)(F)F)c1noc2c1CN(c1ncnc3[nH]ccc13)CC21CC1 [Compound 192] ?
Response: 6.00 to 6.30

Request: I'd like to know its pIC50. The compound in question is COCCn1nc(C(=O)NCCC(F)(F)F)c2c1CCN(c1ncnc3[nH]ccc13)C2 [Compound 104]
Response: 6.00 to 6.30

Request: Need pIC50 of O=C(NCC(O)C(F)(F)F)c1noc2c1CN(c1ncnc3[nH]ccc13)CC2 (stereo not drawn) [Compound 190] , thanks.
Response: > 6.30

Request: Returns the measured pIC50 for the input compound. Input: O=C(NCCC(F)(F)F)c1nn(C(=O)CCc2ccccc2)c2c1CN(c1ncnc3[nH]ccc13)CC2 [Compound 103]
Response: 5.00 to 6.00

Request: Find the recorded pIC50 belonging to CCS(=O)(=O)n1nc(C(=O)NCCC(F)(F)F)c2c1CCN(c1ncnc3[nH]ccc13)C2 [Compound 102] and report it.
Response: 5.00 to 6.00

Request: Look up pIC50: O=C(NCC1CC(F)(F)C1)c1noc2c1CN(c1ncnc3[nH]ccc13)CC2 [Compound 198]
Response: > 6.30

Request: # pIC50 lookup, item O=C(c1noc2c1CN(c1ncnc3[nH]ccc13)CC2)N1CC(C(F)(F)F)C1 [Compound 194]
Response: > 6.30

Request: // query pIC50 value for entry O=C(NCCC(F)(F)F)c1n[nH]c2c1CN(c1ncnc3[nH]ccc13)CC2 [Compound 109]
Response: 5.00 to 6.00
